Hey, just so you know, these numbers are from patent US9505781B2.

Recorded pIC50, one value per entry.
assayed_system: menin-MLL interaction (Homo sapiens, UniProt O00255)
Sequence (O00255 1-610): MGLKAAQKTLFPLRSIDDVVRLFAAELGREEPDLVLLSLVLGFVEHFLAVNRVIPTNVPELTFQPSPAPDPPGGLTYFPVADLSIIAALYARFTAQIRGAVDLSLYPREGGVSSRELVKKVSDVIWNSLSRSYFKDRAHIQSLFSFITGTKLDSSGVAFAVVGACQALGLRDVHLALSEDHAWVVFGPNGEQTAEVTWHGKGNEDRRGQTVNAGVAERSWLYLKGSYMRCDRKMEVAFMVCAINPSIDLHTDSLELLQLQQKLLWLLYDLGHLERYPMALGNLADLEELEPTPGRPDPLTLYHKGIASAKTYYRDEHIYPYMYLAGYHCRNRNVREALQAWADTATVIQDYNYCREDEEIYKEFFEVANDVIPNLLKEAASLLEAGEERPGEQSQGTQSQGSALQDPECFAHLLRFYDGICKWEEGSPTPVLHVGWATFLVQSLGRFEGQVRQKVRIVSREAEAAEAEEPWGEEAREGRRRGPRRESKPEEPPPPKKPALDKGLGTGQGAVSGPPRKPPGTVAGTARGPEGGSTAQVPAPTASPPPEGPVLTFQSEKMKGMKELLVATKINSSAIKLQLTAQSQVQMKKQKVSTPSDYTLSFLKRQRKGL
test: biochemical
pIC50: −log10 of the molar value.

chemical_structure=COc1cc2[nH]c(C#N)cc2c(C)c1CN1CCC(Nc2ncnc3sc(CC(F)(F)F)cc23)CC1 measurement_type=pIC50 reading="> 7.00"
chemical_structure=Cc1c(CN2CCC(Nc3ncnc4sc(CC(F)(F)F)cc34)CC2)ccc2c1cc(C#N)n2Cc1cnn(C)c1 measurement_type=pIC50 reading="> 7.00"
chemical_structure=N#Cc1cc2cc(CN3CCC(Nc4ncnc5sc(CC(F)(F)F)cc45)CC3)ccc2n1CC1CC1 measurement_type=pIC50 reading="> 7.00"

Kindly review the next molecule as well.
Give its pIC50 value. Item: O=C(Cc1ccccc1)N1CCN(c2ncnc3sc(CC(F)(F)F)cc23)CC1
6.30 to 7.00
